- experimental system: Mu-type opioid receptor (Rattus norvegicus)
- test description: Agonist activity at rat mu opioid receptor expressed in HN9.10 cells assessed by [35S]GTP-gamma-S binding assay relative to control
- Type: functional, cell-based
Square brackets hold non-standard residues; d marks the D form. Peptide text beside a SMILES is read from it. * marks the point of attachment. OBzl(3,5-(CF3)2) = FC(F)(F)c1cc(CO*)cc(C(F)(F)F)c1
result type: Emax (%)
Record the value in %, omitting the unit from your answer.

Solved entries (count: 4):
1) CSCC[C@H](NC(=O)[C@H](Cc1ccccc1)NC(=O)CNC(=O)[C@@H](C)NC(=O)[C@@H](N)Cc1ccc(O)cc1)C(=O)N1CCC[C@H]1C(=O)N[C@@H](CC(C)C)C(=O)N[C@@H](Cc1c[nH]c2ccccc12)C(=O)OCc1cc(C(F)(F)F)cc(C(F)(F)F)c1    42
2) CC(C)C[C@H](NC(=O)[C@@H]1CCCN1C(=O)CNC(=O)[C@H](Cc1ccccc1)NC(=O)CNC(=O)[C@@H](C)NC(=O)[C@@H](N)Cc1ccc(O)cc1)C(=O)N[C@@H](Cc1c[nH]c2ccccc12)C(=O)OCc1cc(C(F)(F)F)cc(C(F)(F)F)c1 (H-Y[dA]GFGPLW-{OBzl(3,5-(CF3)2)})    36
3) CC(C)C[C@H](NC(=O)[C@@H]1CCCN1C(=O)[C@@H](Cc1ccccc1)NC(=O)[C@H](Cc1ccccc1)NC(=O)CNC(=O)[C@@H](C)NC(=O)[C@@H](N)Cc1ccc(O)cc1)C(=O)N[C@@H](Cc1c[nH]c2ccccc12)C(=O)OCc1cc(C(F)(F)F)cc(C(F)(F)F)c1    24
4) CC(C)C[C@H](NC(=O)[C@@H]1CCCN1C(=O)[C@H](Cc1ccccc1)NC(=O)[C@H](Cc1ccccc1)NC(=O)CNC(=O)[C@@H](C)NC(=O)[C@@H](N)Cc1ccc(O)cc1)C(=O)N[C@@H](Cc1c[nH]c2ccccc12)C(=O)OCc1cc(C(F)(F)F)cc(C(F)(F)F)c1    36

*Q* Provide Emax value for the following compound: `CC(C)C[C@H](NC(=O)[C@@H]1CCCN1C(=O)[C@H](CC(C)C)NC(=O)[C@H](Cc1ccccc1)NC(=O)CNC(=O)[C@@H](C)NC(=O)[C@@H](N)Cc1ccc(O)cc1)C(=O)N[C@@H](Cc1c[nH]c2ccccc12)C(=O)OCc1cc(C(F)(F)F)cc(C(F)(F)F)c1`
*A* 45
